Test system: M14 melanoma
Assay: NCI-60 one-dose screen, 48 h (100 = growth as untreated, 0 = no growth, -100 = all killed)
Conditions: 10 µM unless noted
Procedure: Growth inhibition of the M14 human tumor cell line is measured as a screen for anti-cancer activity. Cells are grown in 96 well plates and exposed to the test compound for 48 hours. Compounds are tested at a single concentration, which is 10^-5 M for most compounds. The reported endpoint is percent growth (GI% or GIPRCNT), where numbers from 0 - 100% represent growth inhibition, and numbers from -100% - 0 represent cell death. For example, a value of 40 represents 60% growth inhibition. […]
Compounds without any hit were thinned out: in the full panel of roughly 83,000, 20% have a hit. Active and inactive are the calls of the source. How the source made its calls: active means growth percent below 10; inactive means the rest.
Recorded growth for the following compounds

Name the recorded growth of the item Cc1c(Cn2c(C)nc3c(C(=O)O)cc(N4CCOCC4)cc32)cccc1C(F)(F)F in your answer.
89% (inactive)

Measured values drawn from PubChem BioAssay (NCI) for this set.
